- System: HIV-1
- RUN_PARAMETERS: test concentration 10 µg/mℓ, duration 6 days
Catalogue of compounds with associated % INHIBITION OF P24 PROTEIN PRODUCTION
Give the value in % but do not write % after it.

CC(C)CCC[C@@H](C)[C@H]1CC[C@H]2[C@@H]3CC=C4C[C@@H](OS(=O)(=O)O)CC[C@]4(C)[C@H]3CC[C@]12C [CHO-SO₄⁻, Cholesteryl sulphate, reference compound] : 0
CC(C)CCC[C@@H](C)[C@H]1CC[C@H]2[C@@H]3CC=C4C[C@@H](O)CC[C@]4(C)[C@H]3CC[C@]12C [CHO, Cholesterol, reference compound] : 3
CC[C@H](CC[C@@H](C)[C@H]1CC[C@H]2[C@@H]3CC=C4C[C@@H](OS(=O)(=O)O)CC[C@]4(C)[C@H]3CC[C@]12C)C(C)C [BSS-SO₄⁻, β-Sitosteryl sulphate, reference compound] : 0
CC[C@H](CC[C@@H](C)[C@H]1CC[C@H]2[C@@H]3CC=C4C[C@@H](O[C@@H]5O[C@H](COS(=O)(=O)O)[C@@H](OS(=O)(=O)O)[C@H](OS(=O)(=O)O)[C@H]5OS(=O)(=O)O)CC[C@]4(C)[C@H]3CC[C@]12C)C(C)C [BSSG-(SO₄⁻)₄] : 55
CC[C@H](CC[C@@H](C)[C@H]1CC[C@H]2[C@@H]3CC=C4C[C@@H](O)CC[C@]4(C)[C@H]3CC[C@]12C)C(C)C [BSS, β-Sitosterol, reference compound] : 0

We now examine a further compound.
Please supply the value of reported % INHIBITION OF P24 PROTEIN PRODUCTION for the item CC[C@H](CC[C@@H](C)[C@H]1CC[C@H]2[C@@H]3CC=C4C[C@@H](O[C@@H]5O[C@H](CO)[C@@H](O)[C@H](O)[C@H]5O)CC[C@]4(C)[C@H]3CC[C@]12C)C(C)C [BSSG, β-Sitosteryl β-D-glucoside, reference compound]
0
